tested on: HT29 colon; assay: NCI-60 one-dose screen, 48 h; conditions: 10 µM
This is part of a sample that, as a whole, favours compounds with a hit. Of some 83,000 tested, about 20% had one in any assay. Calls of active or inactive are those of the source. Rule for the calls: active = growth percent below 10; inactive = the rest.
Result category, one only: active, inactive

COMPOUND	CAT
CCCCN(CCCC)c1cc(C(=O)CCCCCN)c2ccccc2n1	active
COc1cc(NC(=O)CCSc2nc3ccc(C)cc3c(=O)n2Cc2ccccc2)cc(OC)c1OC	inactive
Cc1cc(Nc2ccc(Cl)cc2)nc(NCCCNc2ccnc3cc(Cl)ccc23)n1	active
CCC(=O)N1C/C(=C/c2ccc(Br)cc2)C(=O)/C(=C/c2ccc(Br)cc2)C1	active
Nc1c(C(=O)Nc2ccccc2Cl)sc2nc3c(cc12)C(=O)CCC3	inactive

Query :: For this compound, state the assay outcome: Nc1nc(-c2ccccc2Cl)cc(-c2ccc(Cl)cc2Cl)n1
Result :: inactive

Query :: For this compound, state the assay outcome: COc1ccc2c(c1)sc1nc(-c3ccccc3)c(-c3ccsc3)n12
Result :: active

Query :: For this compound, state the assay outcome: COc1cc(NC(=O)CSc2nc3ccccc3c(=O)n2CCc2ccccc2)cc(OC)c1OC
Result :: inactive

Query :: For this compound, state the assay outcome: COc1ccc(-c2nc3ccccn3c2-c2nnc(-c3cc(OC)c(OC)c(OC)c3)o2)cc1
Result :: inactive

Query :: For this compound, state the assay outcome: O=C(CC(C(=O)c1ccccc1)N1CCOCC1)c1ccccc1 (stereo not drawn)
Result :: inactive
